Cited source for all entries: PubChem BioAssay (NCI)

procedure details: NCI Yeast Anticancer Drug Screen. Data for the mlh1 rad18 strain (AID 175)
cond: S. cerevisiae mlh1 rad18 strain growth inhibition; at 5.0 µM (retest, dose inferred, filed as 0.5)
About 79,000 compounds went through this panel and 15% of them were active in at least one assay; those are over-represented in the sample as a whole. Active and inactive are the calls of the source. Cut-off read from the data, not from the text of the source: active = growth inhibition above about 70%; inactive = the rest.
Hello, when you answer, please use one of the following outcomes: YES for active, NO for inactive

[ask] Which outcome was entered for the molecule `Nc1ccc(Cl)c2cccnc12` in this test?
[reply] NO

[ask] How about this molecule: Cc1ccc2c(c1)C1(SC(C)C(=O)N1c1ccc(F)cc1)C(=O)N2 (stereo unspecified)
[reply] NO

[ask] What do we get for CC(C)C1(Cl)CCC2C3(C)CCCC(C)(C(=O)O)C3CC(Cl)C2(Cl)C1Cl (stereo unspecified) ?
[reply] NO

[ask] Also `c1ccc(NN=C(c2ccccc2)c2ccccc2)cc1` , if possible.
[reply] NO

[ask] Moving on to `[Br][Pt+2][Br].[NH-]c1cccc(I)c1.[NH-]c1cccc(I)c1`
[reply] NO

[ask] Moving on to the next molecule: COc1ccc(C2Oc3ccc(Cl)cc3C=C2[N+](=O)[O-])cc1OC (stereo unspecified)
[reply] YES

----------
procedure details: NCI Yeast Anticancer Drug Screen. Data for the rad50 strain (AID 155);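 note: 0% = growth of vehicle-only cultures of the same strain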
cond: S. cerevisiae rad50 strain growth inhibition; at 5.0 µM (retest, dose inferred, filed as 0.5)
This is part of a sample that, as a whole, favours compounds with a hit. Of some 79,000 tested, about 15% had one in any assay. Activity calls are given as the source filed them. Cut-off read from the data, not from the text of the source: active = growth inhibition above about 70%; inactive = the rest.
Can you answer with just one of these options? active, inactive

Observe how each entry below is paired with its result.
INSERT INTO measurements (compound, label_class) VALUES
  ('CCOC(=O)c1ccc2c3c([nH]c2c1C)-c1ccccc1CC3', 'inactive'),
  ('CCOC(=O)C(C(=O)OCC)C(=O)c1ccc2c(c1)OCO2', 'inactive'),
  ('COC(=O)CCC(C)C1CCC2C3CCC4CC(SC(=N)N)CCC4(C)C3CC(O)C12C (stereo unspecified)', 'active'),
  ('CC(C)c1cccc2sc(NC(=O)C(=O)C(C#N)c3cccc4ccccc34)nc12 (stereo unspecified)', 'inactive'),
  ('CCCC(=O)NCCNC(=O)CCC', 'inactive');

[ask] Identify the outcome logged in this assay for the compound shown: CCC(c1ccc(Cl)cc1)C(C#N)c1ccccc1 (stereo unspecified)
[reply] inactive

----------
procedure details: NCI Yeast Anticancer Drug Screen. Data for the cln2 rad14 strain (AID 165);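 note: 0% = growth equal to vehicle treated cultures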
cond: S. cerevisiae cln2 rad14 strain, at 50.0 µM, active compounds read high
Method: Growth inhibition of yeast strains with defined genetic alterations is measured as a screen for potential anti-cancer activity. Selected strains with alterations in DNA damage repair or cell cycle control were exposed to compounds and growth inhibition was measured relative to vehicle treated controls. The strain used in this assay is cln2 rad14
Compounds without any hit were thinned out: in the full panel of roughly 79,000, 15% have a hit.
# growth inhibition per entry
Just the number please, in %, no unit attached.

# example entries with known answers
INSERT INTO assay_data (compound, measure, unit_symbol, result_number) VALUES
  ('CCCCCOC(=O)C(C)SC#N (stereo unspecified)', 'growth inhibition', '%', 92.3),
  ('c1ccc(Oc2ccc(Nc3c4ccccc4nc4ccccc34)cc2)cc1', 'growth inhibition', '%', 31.9),
  ('c1ccc(COc2cccc3[nH]ccc23)cc1', 'growth inhibition', '%', 88.8),
  ('O/N=C(/CN1CCN(c2ccccc2)CC1)c1ccccc1', 'growth inhibition', '%', -68.2),
  ('CCOC(=O)C(C#N)NC(C)=O (stereo unspecified)', 'growth inhibition', '%', 3.05),
  ('NC(=S)N/N=C/c1cn(CCCl)c2ccccc12', 'growth inhibition', '%', 42.9),
  ('CC[C@@H](C(=O)[C@@H](C)[C@@H](O)[C@H](C)CCc1ccc(C)c(O)c1C(=O)O)[C@H]1O[C@](CC)([C@H]2CC[C@](O)(CC)[C@H](C)O2)C[C@@H]1C', 'growth inhibition', '%', 87.8),
  ('N#CC1(C#N)C2C=CC(c3coc4cccc2c34)C1(C#N)C#N (stereo unspecified)', 'growth inhibition', '%', 19.2);

[ask] Bench note: what growth inhibition did `Nc1ccc(-c2ccc(N)cc2S(=O)(=O)O)c(S(=O)(=O)O)c1` show?
[reply] 23.4

[ask] // repeat for O=C(O)CC1c2ccc3ccccc3c2CCC1c1ccccc1 (stereo unspecified) and report
[reply] 99.5

[ask] Now the compound `CCC(=O)C(C(=O)CC)c1c(OC(=O)c2ccccc2)ccc(O)c1C(=O)OC`
[reply] -7.45

----------
procedure details: NCI Yeast Anticancer Drug Screen. Data for the mec2-1 strain (AID 157)
cond: S. cerevisiae mec2-1 strain, at 5.0 µM (retest, dose inferred, filed as 0.5), active compounds read high
Compounds without any hit were thinned out: in the full panel of roughly 79,000, 15% have a hit.
measure: growth inhibition (%)
Give the value, in units of %, as a plain number.

Worked set:
INSERT INTO measurements (compound, measure, result_number) VALUES
  ('CCCC1c2ccc(O)cc2CC1c1ccc(O)cc1 (stereo unspecified)', 'growth inhibition', -4),
  ('CC(=O)Oc1c2ccccc2c(C)c2c1ccc1ccccc12', 'growth inhibition', 84),
  ('COc1ccc(N=C2C(=S)N(c3ccc(OC)cc3)/C(=N/S(=O)(=O)c3ccccc3)N2c2ccccc2)cc1', 'growth inhibition', 9),
  ('CC(=O)OC1=C(CC(C)C)C(=O)c2ccccc2C1=O', 'growth inhibition', 8),
  ('COC(=O)CCc1c(Cc2ccc[nH]2)[nH]c(C(=O)OCc2ccccc2)c1C', 'growth inhibition', -12),
  ('CCCCCC1OC1CC1OC1CCCCCCCC(=O)OC (stereo unspecified)', 'growth inhibition', -1),
  ('CN(C)c1ccc2c(c1)N(C)c1ccccc1C2(Cl)c1ccccc1 (stereo unspecified)', 'growth inhibition', 99),
  ('CN(C)N=Nc1ccc(-c2ccccc2)cc1', 'growth inhibition', 42),
  ('CCN(CC)c1c(C(=O)/C=C/c2ccc(OC)cc2)c(-c2ccccc2)nn(C)c1=O', 'growth inhibition', 8),
  ('CN(C)/C=C(\C(=O)c1ccccc1)n1nc(-c2ccccc2)cc1-c1ccccc1', 'growth inhibition', -4);

[ask] Find the recorded growth inhibition belonging to N=C(N)SC1c2ccccc2-c2ccc(N)cc21 (stereo unspecified) and report it.
[reply] 4

----------
procedure details: NCI Yeast Anticancer Drug Screen. Data for the rad50 strain (AID 155);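 note: 0% = growth of vehicle-only cultures of the same strain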
cond: S. cerevisiae rad50 strain growth inhibition; at 5.0 µM (retest, dose inferred, filed as 0.5); active compounds read high
The panel holds about 79,000 compounds, 15% with a hit somewhere; the sample as a whole holds those more often.
measure: growth inhibition (%)
Answer with a number only, understood to be in %.

INSERT INTO assay_data (molecule, unit_symbol, result_number) VALUES
  ('COc1ccccc1N=Nc1c(N)nc(N)[nH]c1=O', '%', 4),
  ('CCC(C)NC(=S)N/N=C(\C)c1ccccn1 (configuration not stated)', '%', 20),
  ('CCCc1cc2c(cc1CS(=O)(=O)CC)OCO2', '%', -4),
  ('c1ccc(N=c2sc3ccccc3sc2=Nc2ccccc2)cc1', '%', 94),
  ('Oc1c(Cl)ccc2cccnc12', '%', 97);

[ask] Fill in the blank: the reported growth inhibition of `O=C(C1=Cc2ccccc2OC1)N1CCN(c2cccc(Cl)c2)CC1` is ____.
[reply] -1

[ask] Lookup `N#CC(C#N)=C1C(Br)=CCc2ccccc21`
[reply] 100

[ask] What about CC(C)(C)OC(=O)NCCNC(=O)CN(CC(=O)O)C1CCCCC1N(CC(=O)O)CC(=O)O (configuration not stated) ?
[reply] -16

[ask] Then `[Cl][Sn]1([Cl])[CH2]CC[CH2][Sn]([Cl])([Cl])[CH2]CC[CH2][Sn]([Cl])([Cl])[CH2]CC[CH2][Sn]([Cl])([Cl])[CH2]CC[CH2]1` ?
[reply] -20

[ask] One more molecule: Oc1ccc(C2SC(c3ccc(O)cc3)SC(c3ccc(O)cc3)S2)cc1 (configuration not stated)
[reply] 14

----------
procedure details: NCI Yeast Anticancer Drug Screen. Data for the bub3 strain (AID 167)
cond: S. cerevisiae bub3 mutant strain, at 5.0 µM (retest, dose inferred, filed as 0.5), active compounds read high
Compounds without any hit were thinned out: in the full panel of roughly 79,000, 15% have a hit.
growth inhibition for assorted compounds
// note: answer is a bare numeric in %

Example cases with answers are listed next.
INSERT INTO assay_data (compound, measure, unit_symbol, result_number) VALUES
  ('O=[N+]([O-])/C(C(Cl)=C(Cl)Cl)=C(/Sc1ccccc1)N1CCCCC1', 'growth inhibition', '%', -19),
  ('O=C(OCCN=c1c2ccccc2ccc2ccccc12)c1ccccc1', 'growth inhibition', '%', 2),
  ('COc1ccc(C(=O)C(c2ccc(OC)cc2)C2(O)C(=O)Nc3c(C)cc(Cl)cc32)cc1 (stereo not drawn)', 'growth inhibition', '%', -3),
  ('O=C(/C=C/c1ccccc1)NOC(=O)/C=C/c1ccccc1', 'growth inhibition', '%', 34),
  ('C/C=C(\C)[C@H](O)C(COCc1ccccc1)NS(=O)(=O)c1ccc(C)cc1 (stereo partly drawn)', 'growth inhibition', '%', -3),
  ('Nc1ncnc2nc[nH]c12.[Ag]', 'growth inhibition', '%', 99);

[ask] Entry `O=C(/C(O)=C(\O)C(=O)N(C1CCCCC1)C1CCCCC1)N(C1CCCCC1)C1CCCCC1` : reported growth inhibition = ?
[reply] 4

[ask] Queued: `COc1ccc(C2=C(Cl)C(=O)N(c3ccc(OC)cc3)C(=O)C2(Cl)Cl)cc1`
[reply] -8

[ask] Let us now turn to CCCC/C=C1/CCC(CN(C)C)C1=O (stereo not drawn)
[reply] 14

[ask] Same question, `Cc1cnc(Sc2c([N+](=O)[O-])ncn2C)nc1` this time
[reply] 1

[ask] Cool, now `Cc1ccccc1SCc1nc2ccccc2c(C)[n+]1[O-]`
[reply] -1

[ask] Request: CC(Nc1cc(Cl)cc(Cl)c1)c1ccncc1 (stereo not drawn)
[reply] -59

[ask] Input `Cc1[nH]nc(C(=O)N/N=C/c2cccs2)c1N=NN(C)C`
[reply] -1

[ask] Now try `COc1ccc(C)cc1NC(=O)ON=C1CCCCC1` .
[reply] 30

[ask] // query: `Cc1ccc(C(=O)/C=C/c2ccco2)c(C)c1`
[reply] 2

[ask] Likewise for `O=c1c2cc3c(cc2c2cccc4c2n1CCC4)OCO3` ?
[reply] 2

[ask] Same for `O=C(Nc1cc(Cl)ccc1Oc1cc(Cl)c(Cl)cc1S(=O)(=O)O)Nc1cc(Cl)ccc1Oc1cc(Cl)c(Cl)cc1S(=O)(=O)O`
[reply] 14

[ask] Follow-up item: `O=c1oc(-c2cccc(C(Cl)Cl)c2)ns1`
[reply] 3

[ask] Entry `COc1ccc2ccc(=O)oc2c1CC=C(C)C` please
[reply] 14

[ask] And then `CCc1ccccc1NC(=O)C(=O)CC(=O)c1ccc(Cl)s1` , what is it?
[reply] 2

[ask] Please do the same for `CCCn1cnc2c(SCc3ccc(Cl)cc3Cl)nc(N)nc21` as well.
[reply] 13

[ask] Now consider `O=C(Oc1ccc(/C=C/[n+]2ccccc2)c(OC(=O)c2ccccc2)c1)c1ccccc1` and answer again.
[reply] 1

[ask] Param item: CC(C)(C)[Si](C)(C)OCC1OC(n2cc(I)c(N)nc2=O)C(O[Si](C)(C)C(C)(C)C)C1O[Si](C)(C)C(C)(C)C (stereo not drawn)
[reply] 9
